- STUDY SYSTEM: A. baumannii DNA gyrase (Acinetobacter baumannii, UniProt A0ABX6CA01)
- Sequence (A0ABX6CA01 1-822): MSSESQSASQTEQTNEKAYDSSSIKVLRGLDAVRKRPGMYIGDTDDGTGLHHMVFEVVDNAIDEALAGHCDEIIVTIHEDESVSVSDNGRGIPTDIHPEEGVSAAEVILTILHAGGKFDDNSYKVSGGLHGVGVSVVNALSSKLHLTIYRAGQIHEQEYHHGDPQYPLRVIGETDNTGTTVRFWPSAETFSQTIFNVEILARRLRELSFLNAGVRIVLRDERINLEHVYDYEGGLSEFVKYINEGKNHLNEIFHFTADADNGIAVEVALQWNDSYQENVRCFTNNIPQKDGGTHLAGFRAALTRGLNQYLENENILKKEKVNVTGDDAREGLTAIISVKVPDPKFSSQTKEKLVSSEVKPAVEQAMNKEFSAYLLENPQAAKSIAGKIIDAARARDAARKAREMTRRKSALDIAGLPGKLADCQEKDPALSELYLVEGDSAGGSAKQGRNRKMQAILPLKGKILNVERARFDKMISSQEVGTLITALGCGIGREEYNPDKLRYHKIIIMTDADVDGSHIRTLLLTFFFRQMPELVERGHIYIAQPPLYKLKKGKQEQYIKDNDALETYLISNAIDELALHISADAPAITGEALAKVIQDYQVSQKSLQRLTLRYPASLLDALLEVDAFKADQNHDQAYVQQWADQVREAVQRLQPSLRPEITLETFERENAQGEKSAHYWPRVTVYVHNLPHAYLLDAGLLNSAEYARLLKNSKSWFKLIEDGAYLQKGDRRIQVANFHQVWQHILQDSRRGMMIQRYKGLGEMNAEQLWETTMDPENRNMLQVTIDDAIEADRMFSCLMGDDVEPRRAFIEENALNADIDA
- Sequence (A0ABX6CII0 1-904 partner): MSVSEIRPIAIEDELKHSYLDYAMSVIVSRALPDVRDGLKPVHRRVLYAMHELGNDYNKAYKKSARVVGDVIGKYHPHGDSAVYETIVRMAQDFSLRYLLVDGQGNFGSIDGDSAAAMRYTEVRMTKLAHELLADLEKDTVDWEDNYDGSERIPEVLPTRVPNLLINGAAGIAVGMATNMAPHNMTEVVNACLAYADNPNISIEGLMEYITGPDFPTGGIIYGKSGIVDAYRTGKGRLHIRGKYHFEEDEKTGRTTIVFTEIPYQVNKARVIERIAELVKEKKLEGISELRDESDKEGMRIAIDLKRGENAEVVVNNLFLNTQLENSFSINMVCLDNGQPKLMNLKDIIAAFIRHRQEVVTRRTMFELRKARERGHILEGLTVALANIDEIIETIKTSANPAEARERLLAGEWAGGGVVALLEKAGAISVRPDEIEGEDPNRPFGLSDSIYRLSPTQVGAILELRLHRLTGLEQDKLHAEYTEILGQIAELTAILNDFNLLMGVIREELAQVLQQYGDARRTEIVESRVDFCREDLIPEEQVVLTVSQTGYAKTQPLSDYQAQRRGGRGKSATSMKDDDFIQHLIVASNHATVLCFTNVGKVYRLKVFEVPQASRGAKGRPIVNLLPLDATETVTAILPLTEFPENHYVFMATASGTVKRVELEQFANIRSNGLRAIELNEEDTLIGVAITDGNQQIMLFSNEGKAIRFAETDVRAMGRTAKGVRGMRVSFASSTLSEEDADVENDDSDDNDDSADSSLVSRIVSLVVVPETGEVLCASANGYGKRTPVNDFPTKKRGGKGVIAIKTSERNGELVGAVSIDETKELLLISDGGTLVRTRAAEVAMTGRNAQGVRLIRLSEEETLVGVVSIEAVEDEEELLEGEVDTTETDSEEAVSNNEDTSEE
ASSAY ENDPOINT: IC50 (nM)
Give just the number in nM; leave the unit off.

q: Requested read-out: IC50. Entry: Cc1[nH]c(C(=O)Nc2ccc(-c3n[nH]c(=O)o3)cc2N2CC[C@H](N)C2)c(Cl)c1Cl.Cl [Compound 23b]
a: 15.3

---

- STUDY SYSTEM: UniProtKB P11388
- Sequence (P11388 whole entry): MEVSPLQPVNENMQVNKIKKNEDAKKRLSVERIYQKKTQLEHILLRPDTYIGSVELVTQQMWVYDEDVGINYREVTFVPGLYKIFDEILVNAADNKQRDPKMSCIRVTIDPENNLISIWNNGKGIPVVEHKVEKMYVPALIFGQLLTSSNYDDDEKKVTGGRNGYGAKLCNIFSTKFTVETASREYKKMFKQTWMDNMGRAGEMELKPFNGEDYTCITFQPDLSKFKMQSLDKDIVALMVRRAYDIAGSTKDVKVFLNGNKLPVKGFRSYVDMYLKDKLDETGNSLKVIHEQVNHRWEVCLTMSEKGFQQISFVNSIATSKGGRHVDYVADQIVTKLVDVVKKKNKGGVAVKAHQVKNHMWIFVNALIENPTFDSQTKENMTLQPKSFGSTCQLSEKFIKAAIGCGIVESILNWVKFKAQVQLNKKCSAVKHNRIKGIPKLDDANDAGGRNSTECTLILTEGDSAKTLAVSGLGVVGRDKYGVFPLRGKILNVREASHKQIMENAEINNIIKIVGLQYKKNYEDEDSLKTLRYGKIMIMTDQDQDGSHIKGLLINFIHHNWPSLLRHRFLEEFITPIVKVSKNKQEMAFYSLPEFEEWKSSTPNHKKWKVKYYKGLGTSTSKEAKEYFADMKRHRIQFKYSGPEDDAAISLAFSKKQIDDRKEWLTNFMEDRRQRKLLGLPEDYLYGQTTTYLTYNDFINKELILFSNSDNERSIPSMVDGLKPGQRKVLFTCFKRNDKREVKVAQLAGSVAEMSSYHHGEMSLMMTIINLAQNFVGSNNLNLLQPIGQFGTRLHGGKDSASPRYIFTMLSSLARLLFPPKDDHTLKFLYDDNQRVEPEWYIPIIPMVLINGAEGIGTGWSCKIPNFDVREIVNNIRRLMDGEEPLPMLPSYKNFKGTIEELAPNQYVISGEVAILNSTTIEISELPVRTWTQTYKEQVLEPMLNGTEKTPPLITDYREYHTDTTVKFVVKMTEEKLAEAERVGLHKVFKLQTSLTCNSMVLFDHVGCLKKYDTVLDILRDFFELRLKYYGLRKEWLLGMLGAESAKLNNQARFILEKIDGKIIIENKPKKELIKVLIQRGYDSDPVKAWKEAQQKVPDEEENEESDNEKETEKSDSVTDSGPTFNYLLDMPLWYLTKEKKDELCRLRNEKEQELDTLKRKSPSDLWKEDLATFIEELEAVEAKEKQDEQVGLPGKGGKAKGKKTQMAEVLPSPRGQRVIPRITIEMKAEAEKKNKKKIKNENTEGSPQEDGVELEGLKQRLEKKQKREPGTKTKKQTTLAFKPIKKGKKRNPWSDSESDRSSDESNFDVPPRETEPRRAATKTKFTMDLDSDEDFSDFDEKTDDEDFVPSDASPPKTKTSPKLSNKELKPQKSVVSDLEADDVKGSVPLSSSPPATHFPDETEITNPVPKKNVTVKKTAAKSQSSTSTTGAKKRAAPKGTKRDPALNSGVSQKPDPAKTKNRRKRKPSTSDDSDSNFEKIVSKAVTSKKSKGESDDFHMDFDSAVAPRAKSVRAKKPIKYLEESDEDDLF
ASSAY ENDPOINT: pIC50
// pIC50 here means minus log10 of the molar concentration (mol/L)

q: Which measured pIC50 value corresponds to Cc1[nH]c(C(=O)Nc2ccc(-c3n[nH]c(=O)o3)cc2N2CC[C@H](N)C2)c(Cl)c1Cl.Cl [Compound 23b] ?
a: 4.06
